# Target entity: T1, GPC3 endogenously expressed on HepG2 cells (UniProt P51654 25-554)
# T1 construct: whole, on cells
# Assay comment: FACS on HepG2 cells;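 note: flow cytometric binding of chimeric antibodies to cells, read as mean fluorescence intensity, EC50 obtained by curve fitting of the MFI data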
Entries annotated with measured Max MFI
// return numeric value only (unit: MFI, not printed)

The examples below pair each entry with its known result.
q: For the binder shown here, F1.118.4 human-murine chimeric antibody (antibody, human IgG1, kappa, V domains shown) VH: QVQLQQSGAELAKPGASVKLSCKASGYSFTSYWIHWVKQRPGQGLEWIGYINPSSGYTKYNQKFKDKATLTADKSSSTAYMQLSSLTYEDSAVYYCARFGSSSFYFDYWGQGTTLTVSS VL: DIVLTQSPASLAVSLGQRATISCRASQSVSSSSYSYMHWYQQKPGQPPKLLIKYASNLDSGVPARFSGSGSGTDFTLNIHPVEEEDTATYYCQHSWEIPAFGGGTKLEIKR , give the reported Max MFI.
a: 2810

q: One more binder: F1.83.6 human-murine chimeric antibody (antibody, human IgG1, kappa, V domains shown) VH: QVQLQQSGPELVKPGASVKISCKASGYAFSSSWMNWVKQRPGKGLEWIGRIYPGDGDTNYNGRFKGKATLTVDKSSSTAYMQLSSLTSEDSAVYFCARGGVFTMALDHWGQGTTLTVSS VL: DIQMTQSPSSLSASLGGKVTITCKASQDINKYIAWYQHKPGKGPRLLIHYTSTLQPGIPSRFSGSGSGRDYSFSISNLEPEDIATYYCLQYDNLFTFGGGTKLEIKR
a: 2340

From here, focus on the item given below.
q: For the binder shown here, F1.115.8 human-murine chimeric antibody (antibody, human IgG1, kappa, V domains shown) VH: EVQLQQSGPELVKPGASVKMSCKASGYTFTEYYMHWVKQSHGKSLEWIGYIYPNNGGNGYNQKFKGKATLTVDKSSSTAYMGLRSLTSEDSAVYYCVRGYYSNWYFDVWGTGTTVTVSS VL: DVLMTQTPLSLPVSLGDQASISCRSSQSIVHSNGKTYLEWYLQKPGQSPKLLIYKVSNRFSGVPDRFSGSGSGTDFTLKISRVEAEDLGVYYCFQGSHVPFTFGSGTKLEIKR , give the reported Max MFI.
a: 2460
